- SYSTEM: T1, human IL-15 (hIL-15+hIL-15Rα complex), tag on IL-15Rα not stated (human (homo sapiens), UniProt P40933 49-162; Q13261 31-128)
- T1 construct: Co-expressed complex (superagonist) of human IL-15 and human IL-15Rα made in HEK293 cells; also called human IL-15 (IL-15+IL-15Rα complex); IL-15+IL-15Rα complex
- T1 sequence (P40933 49-162, chain 1 of 2): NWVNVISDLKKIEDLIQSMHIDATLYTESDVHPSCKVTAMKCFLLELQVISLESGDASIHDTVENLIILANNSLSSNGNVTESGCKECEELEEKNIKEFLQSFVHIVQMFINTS
- T1 sequence (Q13261 31-128, chain 2 of 2): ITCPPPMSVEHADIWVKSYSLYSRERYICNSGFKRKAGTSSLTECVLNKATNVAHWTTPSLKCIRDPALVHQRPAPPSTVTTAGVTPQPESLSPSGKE
- METHOD DESCRIPTION: SPR (Biacore T200), as in Example 2.2
EXPERIMENTAL ENDPOINT: kon (M⁻¹ s⁻¹)
I only need the number, in M⁻¹ s⁻¹, no unit after it.

Assign kon to the following record: anti-human IL-15 monoclonal antibody R4G4VH+R22F11VK (antibody, V domains shown, Mutant of R1A3; it was captured by anti-human IgG (Fc) in SPR and detected with anti-human IgG in ELISA, so a human Fc is implied; also called R4G4VH+R22FVK) VH: EVQLVQSGAEVKKPGESLKISCKVSGYFFTTYWIGWVRQMPGKGLEYMGIIYPGDSDTRYSPSFQGQVTISADKSISTAYLQWSSLKASDTAMYYCARGGHWNAFDIWGQGTLVTVSS VL: EIVLTQSPGTLSLSPGERATLSCRASQSVIGSYLAWYQQKPGQAPRLLIYSASKLASGIPDRFSGSGSGTDFTLTISRLEPEDFAVYYCQQHYSTPGTFGQGTKVEIK
450000

Identify the reported kon for the following entry. anti-human IL-15 monoclonal antibody R1A3 (antibody, V domains shown, Found from a fully human Fab phage library) VH: EVQLVQSGAEVKKPGESLKISCKVSGYFFTTYWIGWVRQMPGKGLEYMGIIYPGDSDTRYSPSFQGQVTISADKSISTAYLQWSSLKASDTAMYYCARGGHWNAFDFWGQGTLVTVSS VL: EIVLTQSPGTLSLSPGERATLSCRASQSVSSSYLAWYQQKPGQAPRLLIYGASRRATGIPDRFSGSGSGTDFTLTISRLEPEDFAVYYCQQFDASQTFGQGTKLEISR
621000

For anti-human IL-15 monoclonal antibody R2H2VH+R22F11VK (antibody, V domains shown, Mutant of R1A3; it was captured by anti-human IgG (Fc) in SPR and detected with anti-human IgG in ELISA, so a human Fc is implied; also called R2H2VH+R22FVK) VH: EVQLVQSGAEVKKPGESLKISCKVSGYFFTTYWIGWVRQMPGKGLEYMGIIYPGDSDTRYSPSFQGQVTISADKSISTAYLQWSSLKASDTAMYYCARGGHWNSFDTWGQGTLVTVSS VL: EIVLTQSPGTLSLSPGERATLSCRASQSVIGSYLAWYQQKPGQAPRLLIYSASKLASGIPDRFSGSGSGTDFTLTISRLEPEDFAVYYCQQHYSTPGTFGQGTKVEIK , write its kon.
357000

Complete the entry with kon for anti-human IL-15 monoclonal antibody R26H10 (antibody, V domains shown, Humanized mutant of R6E11 with a fully human light chain; captured by anti-human IgG (Fc) in SPR and detected with anti-human IgG in ELISA) VH: QVTLKESGPVLVKPTETLTLTCTVSGFSLTTYAVHWIRQPPGKALEWLGVIWGAGSTDYNPSFMSRLTISKDTSKSQVVLTMTNMDPVDTATYYCAKNAAYYVMDYWGQGTTVTVSS VL: EIVLTQSPGTLSLSPGERATLSCRASQSVIYSYLAWYQQKPGQAPRLLIYAASKLASGIPDRFSGSGSGTDFTLTISRLEPEDFAVYYCQQRASYPLTFGQGTKVEIK
208000

meta.source: patent EP4707300A1
